# assay.notes: amyloid nucleation score (Sup35N fusion, yeast selection) (log enrichment); library NNK3; higher = more nucleation; inactive = no reads after selection;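 note: zero at mode of non-aggregating sequences after 7 days selection at 30°C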
value.kind: amyloid nucleation score

Example cases with answers are listed next.
substance	value.kind	experimental.value
FPSIFCPCFLTIYMFGWIVS	amyloid nucleation score	inactive
FKDCED	amyloid nucleation score	-0.328
LRGTMGEV	amyloid nucleation score	inactive
FWWVKC	amyloid nucleation score	inactive
FLRLCLVVRLRCVVISMGNY	amyloid nucleation score	inactive
ETQWFEI	amyloid nucleation score	inactive
RRFVNVLGMHC	amyloid nucleation score	0.693
PGWLPQGMDNNSLTAVCVTI	amyloid nucleation score	inactive

For each of the items listed, what is its amyloid nucleation score?
1. RVLGKRGGRKH
2. RLLVTLQ

inactive
inactive

For each of the items listed, what is its amyloid nucleation score?
1. YLFVELYYL
2. YRILTGLSLSFRVCIYFVW
3. NPMGWGQLTGCFHYVAMFCS
4. RAVTSWYVVRWFIRYNTSNA
5. RDSLFSV

1: 0.187; 2: inactive; 3: inactive; 4: inactive; 5: inactive

For each of the items listed, what is its amyloid nucleation score?
1. FHEFSTSFWSFEASLLTARL
2. PFCLPRGASCRAGCGEHIKG
3. SYDVNTDFVLCDYSRDTGSQ

1: inactive; 2: inactive; 3: inactive

* * *

# assay.notes: amyloid nucleation score (Sup35N fusion, yeast selection) (log enrichment); library NNK3; higher = more nucleation; inactive = no reads after selection
value.kind: amyloid nucleation score

substance	experimental.value
GVRNWG	inactive
SVDDFR	inactive
PFSSFWVTRTLIALWYSLRT	inactive
VGNGYTMSG	inactive
FIGGVVTVTVYNNTVESGLK	1.65
GISYLVRNSGAKRGD	inactive

For each of the items listed, what is its amyloid nucleation score?
1. DPHCQGFVWGSCMDVWYLSL
2. RYYSDNDYAMQLLLEHTALY
3. DLSIRKFHGGSMDSLNMEYM
4. SCFQQGNFWCSVFFNVGGQL
5. SLWPSRNCVDEEVFDFSDKS
6. CMRGWNSRVE

1. 2.7
2. inactive
3. inactive
4. 2.64
5. inactive
6. inactive

For each of the items listed, what is its amyloid nucleation score?
1. RGYGAAHQRRCQRIRNYYKY
2. SAYLELLLRSFAVICNLSLT
3. ILSDMTGDHNSINFDMYSGI
4. VNFCFFFKLLRGRSGYHLSW

inactive
2.31
inactive
2.15

Recorded result, `ELRCFTQIGLGSCYRFIGYI` , amyloid nucleation score: 0.371

* * *

# assay.notes: amyloid nucleation score (Sup35N fusion, yeast selection) (log enrichment); library NNK3; higher = more nucleation; inactive = no reads after selection
value.kind: amyloid nucleation score

substance	value.kind	experimental.value
TARDESSGV	amyloid nucleation score	inactive
FSRSTTDVSINSGWKM	amyloid nucleation score	inactive
LLLTSVL	amyloid nucleation score	inactive
SGSGFQLLDGLTTRFSVVTF	amyloid nucleation score	inactive
GSVSDGTILKLFHVSDRGTW	amyloid nucleation score	inactive
GDTHHCAADGV	amyloid nucleation score	0.504
FHNVGLI	amyloid nucleation score	1.77
LKSCGMRVSKCCFIDICELC	amyloid nucleation score	0.022

API: the following record is the query input.
Recorded result, `NRPSMSRGVDTRLMSLHETL` , amyloid nucleation score: inactive

* * *

# assay.notes: amyloid nucleation score (Sup35N fusion, yeast selection) (log enrichment); library NNK1; higher = more nucleation; inactive = no reads after selection
value.kind: amyloid nucleation score

Example cases with answers are listed next.
substance	experimental.value
TSPDYPRRYVQMSRR	0.507
IDWQLTSLDQGSCFLA	-0.468
VPSLRYYLYGSFFVI	-2.49
GKFSKDKILLVSYHKAF	0.886

For each of the items listed, what is its amyloid nucleation score?
1. WFGDGSCKRWLWGMKVTPED
2. THCVSLLGIYFFSSWVMIVR
3. FDWGGTAYKKA
4. LFMIMLL
5. LNCPFYIFFLLHTVSA
6. LLRYITARETSLTQSQP
7. LYGFLICLCDSYVRGH

[-0.518, -0.266, 1.01, -1.01, 6.61, 0.298, 0.213]

* * *

# assay.notes: amyloid nucleation score (Sup35N fusion, yeast selection) (log enrichment); library NNK2; higher = more nucleation; inactive = no reads after selection
value.kind: amyloid nucleation score
Answers are plain numbers.

Example cases with answers are listed next.
substance	experimental.value
PHNYLYSFFRRIYYRIGCLN	-0.461
SLSDYFGEWISA	-0.422
SRGISKVTWP	0.276
FNYSPLRFCTNDC	1.63
SYFSCCLFFRAFSTFFGVIP	3.33
LLLITVVIRCRSWVWGWLIS	-0.358
KKVRNC	0.436
CNVLSRRNGKLRACFS	0.732
LRRSTKSSCGVRCWVIEMGS	0.138
HEHLLPRT	0.02

For each of the items listed, what is its amyloid nucleation score?
1. WSDSFTCDCGKLITTSSRLS
2. GYRYWRTACSALFRWSEMC
3. DVIPRVMIKALT
4. SFKLYLYVGAVFFRLLSLVS

[2.02, 0.948, 0.063, -1.08]

For each of the items listed, what is its amyloid nucleation score?
1. RFMVFGNLYDERYTVRFLMR
2. SSLFMTIWDSFSPI
3. DIFITTSSFTLRCAYIIKGI

1. 3.66
2. -0.186
3. -1.44

For each of the items listed, what is its amyloid nucleation score?
1. IYNLWYGISPSVMGGLGFLR
2. YYVLWSGVGIVMDSAYDTIC
3. LLPCLPLPFMSPITARATHI
4. MLALLCVNNWEGCYWYVGSV
5. EYFTYVSAVWKSWCTYGGPA
6. DVYVVIPNYGPQEWVSNYS
7. HNLLSRSAQPRGPLRPVRRH

[3.82, -0.017, 3.24, 6.83, 0.529, -0.341, 2.35]

* * *

# assay.notes: amyloid nucleation score (Sup35N fusion, yeast selection) (log enrichment); library NNK2; higher = more nucleation; inactive = no reads after selection
Answer Not met if amyloid nucleation score is under 0.6, and Met if it is 0.6 or more.

Would you please look over these solved cases?
sequence.content	group.label
HCVLYCNMALFLQRSHRASC	Met
MNHWGMLRLGSWYRITYA	Not met
LCSTHVMKLWFYVSFLLF	Not met
SCLIGLRLVLSLTAHDTETA	Met
TGCRVGHCIYVYVSEVSSNP	Met
KYRYRLVQR	Not met

Entry `TGSWNGCVKWASRLKRAGGR` : is its amyloid nucleation score no less than 0.6?
Met

Entry `NFACVFHGVDFYRTDSSCRK` : is its amyloid nucleation score no less than 0.6?
Met

Entry `GQPRLRSY` : is its amyloid nucleation score no less than 0.6?
Met

* * *

# assay.notes: amyloid nucleation score (Sup35N fusion, yeast selection) (log enrichment); library NNK3; higher = more nucleation; inactive = no reads after selection
value.kind: amyloid nucleation score

Example cases with answers are listed next.
substance	value.kind	experimental.value
YFYWTCSDKRVTIEDVVPLH	amyloid nucleation score	inactive
IKSKNAVCCHFATTMQDSLT	amyloid nucleation score	inactive
YAHLWKNSEAGWSGKYSILW	amyloid nucleation score	inactive
YPSMLPGTGSIAIMDEFVIM	amyloid nucleation score	inactive
NSDFLSTVGYEGLLHTQGCA	amyloid nucleation score	inactive
AGHSEA	amyloid nucleation score	inactive
CGYKEVGVPASRRMNS	amyloid nucleation score	inactive
LFYYSRTVESYLSNVCLVIR	amyloid nucleation score	inactive
FVYYANYQYFRPFYKMSWHQ	amyloid nucleation score	1.51
SPLNQVSGYIMFWYSGT	amyloid nucleation score	inactive

For each of the items listed, what is its amyloid nucleation score?
1. DSSFLATFFILVTGCCLLVD
2. NYGLLQFISIWSNILVHSNV
3. ESRSRLRNGTLFNCVIN
4. LGYWKFSIRHFEGGRLQIHF
5. VSLLNITTVMSSPRIQGKHV

1. inactive
2. inactive
3. -0.081
4. 2.7
5. 1.01

For each of the items listed, what is its amyloid nucleation score?
1. VMGVAPSYASTYLLVILNMG
2. RRVFHQAFSGWSDLCIQRSG

1. 1.39
2. inactive

* * *

# assay.notes: amyloid nucleation score (Sup35N fusion, yeast selection) (log enrichment); library NNK2; higher = more nucleation; inactive = no reads after selection
value.kind: amyloid nucleation score

Example cases with answers are listed next.
sequence.content	experimental.value
AARVIGWAFVDWFCLSKG	inactive
NCFFITGGNGYNAVLLKYIC	3.83
VYGCGSCLNCVVCMERCG	9.09
LILDILSRGSAYYDCTRMKG	inactive

For each of the items listed, what is its amyloid nucleation score?
1. FCLLIGLLFTYWLSINFAIT
2. KYTVSLVDLGCFQSKGCDST
3. QGTRAYQSKALTVSIMLMLV

1: inactive; 2: inactive; 3: 3.45

For each of the items listed, what is its amyloid nucleation score?
1. GEQYATGLP
2. YNWHMSHFYDLGP
3. TNADGRTGT

[5.51, 4.99, -0.385]

# credit: the supplement of paper PMC12042874
